Collected growth values appear next to each entry.
# System: NCI-H322M lung
# method-description: NCI-60 one-dose screen, 48 h (100 = growth as untreated, 0 = no growth, -100 = all killed)
# protocol-conditions: 10 µM unless noted
# Experimental: Growth inhibition of the NCI-H322M human Non-Small Cell Lung tumor cell line is measured as a screen for anti-cancer activity. Cells are grown in 96 well plates and exposed to the test compound for 48 hours. Compounds are tested at a single concentration, which is 10^-5 M for most compounds. The reported endpoint is percent growth (GI% or GIPRCNT), where numbers from 0 - 100% represent growth inhibition, and numbers from -100% - 0 represent cell death. […]
About 83,000 compounds went through this panel and 20% of them were active in at least one assay; those are over-represented in the sample as a whole.
Give just the numeric value; % need not be written.

Illustrative cases are given below, each with its answer.
Summary for this compound, Cc1ccc(NC(=O)c2sc3nc4c(cc3c2N)C(=O)CCC4)cc1Cl : growth is 109

Summary for this compound, CC1=C(O)C(=O)CC1 : growth is 103

Summary for this compound, O=C1CCCN1C1CCN2CCCc3cccc1c32 (stereo not given) : growth is 114

Summary for this compound, CCNCCCn1c2c(c3ccc(Cl)cc3c1=O)C(=O)c1cc(OC)cnc1-2 : growth is 45

New cases:
Summary for this compound, O=C1SCN(Cc2ccccc2)CN1Cc1ccccc1 : growth is 95.3

Summary for this compound, Oc1ccccc1-c1nnc(COc2ccc(Cl)cc2Cl)o1 : growth is 52.6

Summary for this compound, COc1ccc(/C=N/NC(N)=S)c(OC)n1 : growth is 104

Summary for this compound, CCN(CC)c1ccc(/C=N/N=C(N)N)cc1 : growth is 87.7

Summary for this compound, CC(C)=CC[C@@H]1CC2(CC=C(C)C)C(=O)C(OC3(C(=O)c4ccccc4)C(=O)C4(CC=C(C)C)C[C@@H](CC=C(C)C)C(C)(C)C(CC=C(C)C)(C4=O)C3=O)(C(=O)c3ccccc3)C(=O)C(CC=C(C)C)(C2=O)C1(C)C (stereo not given in full) : growth is 3.49

Summary for this compound, O=C(NNC(=O)c1cccc(Cl)c1)c1ccccc1 : growth is 107

* * *

# Tested on: NCI-H23 lung
# method-description: NCI-60 one-dose screen, 48 h (100 = growth as untreated, 0 = no growth, -100 = all killed)
# protocol-conditions: 10 µM unless noted
This is part of a sample that, as a whole, favours compounds with a hit. Of some 83,000 tested, about 20% had one in any assay.
reported-metric: growth (%)
Give just the numeric value; % need not be written.

Illustrative cases are given below, each with its answer.
Summary for this compound, CN1C2CCC1/C(=C\c1ccc(Cl)cc1)C(=O)/C2=C/c1ccc(Cl)cc1 : growth is 62.4

Summary for this compound, Oc1c(C(Nc2cccc3ccccc23)c2ccccc2)ccc2cccnc12 (stereo not given) : growth is 41.8

Summary for this compound, CC(C)c1nc2ccccc2n1CC(=O)N/N=C/c1cccc(O)c1 : growth is 101

Summary for this compound, COc1ccc(NC(=O)Cn2c(=O)sc3c(-c4ccc(Cl)cc4)cc(-c4ccc(Cl)cc4)nc32)cc1 : growth is 91

Summary for this compound, C=C1C(=O)O[C@H]2[C@H]1CC/C(COC(=O)NCc1cccc(OC)c1)=C\CC[C@@]1(C)O[C@@H]21 : growth is 73.4

Summary for this compound, CCCCCCCCCCCCNC(=O)N[C@H](C(=O)N[C@H]1/C=C/CCNC(=O)/C=C/[C@H](C)NC1=O)C(C)C : growth is -42.8

New cases:
Summary for this compound, COC(=O)c1ccc2c(c1)nc(-c1ccc(Cl)cc1)n2-c1cc(C(C)(C)C)[nH]n1 : growth is 60.7

Summary for this compound, CCc1c(C)c2ccc(O)c(-c3cc(-c4ccccc4)c(C#N)c(=O)[nH]3)c2oc1=O : growth is 89

Summary for this compound, CN(C)N1C(=O)c2c(Cl)c(Cl)c(Cl)c(Cl)c2C1=O : growth is 96.9

Summary for this compound, COc1ccc(/C=N/NC(N)=S)c(OC)n1 : growth is 108

These data points were gathered from PubChem BioAssay (NCI).
